Would you kindly list RAM network inhibition for each of these compounds?
- procedureDetails: RAM signaling pathway blockade in yeast – S. cerevisiae, Pdr1DBD-CYC8 efflux-inhibited sensitized strain, primary screen (AID 1298);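 note: 0% = DMSO untreated cells without growth and 100% = 10 µM 1-NA-PP1 full growth; higher means more yeast growth rescued from 5-FOA killing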
- experimentalConditions: S. cerevisiae cbk1-as DSE1-URA3 strain, 5-FOA growth OD615, 2 d; at 50 µM; active compounds read high
One number for each entry, in %.

Example results:
compound="COc1cccc(C2CC(c3ccc(Cl)cc3)n3nc(N)nc3N2)c1 (stereo unspecified)" number=7.39
compound=COC(=O)CN1C(=O)COc2ccc(Cl)cc21 number=2.29
compound="COc1ccc2[nH]c(C)c(CCN3C(=O)C4CC=CCC4C3=O)c2c1 (stereo unspecified)" number=2.77
compound="Cc1ccc(N(CC(=O)NC2CC3CCC2C3)S(C)(=O)=O)cc1C (stereo unspecified)" number=5.17
compound=Cn1c(=O)[nH]c(=O)c2c1nc(SCC(=O)Nc1ccccc1)n2Cc1ccccc1 number=2.08
compound="COc1ccc(Br)cc1C1CC(=O)N2CN(C)CSC2=C1C#N (stereo unspecified)" number=1.82
compound=COC(=O)c1ccc(NS(=O)(=O)c2ccc3c(c2)oc(=O)n3C)cc1 number=7.21
compound=CSC(=NCCCN1CCOCC1)NS(=O)(=O)c1cccs1 number=1.45
compound=CCCCn1c(CCC(=O)O)ccc1-c1cccs1 number=-1.84
compound="O=C(O)CC12CSc3[nH]c(=O)sc3C1c1ccccc1OC2=O (stereo unspecified)" number=-0.11

IN: Could you share which RAM network inhibition value was measured for `O=C(CCCC(=O)N1CCCc2ccccc21)N1CCCc2ccccc21` ?
OUT: 1.5

====

- targetOrTestSystem: Receptor tyrosine-protein kinase erbB-2 (Homo sapiens) (UniProt P04626)
- Sequence (P04626 whole entry, looked up): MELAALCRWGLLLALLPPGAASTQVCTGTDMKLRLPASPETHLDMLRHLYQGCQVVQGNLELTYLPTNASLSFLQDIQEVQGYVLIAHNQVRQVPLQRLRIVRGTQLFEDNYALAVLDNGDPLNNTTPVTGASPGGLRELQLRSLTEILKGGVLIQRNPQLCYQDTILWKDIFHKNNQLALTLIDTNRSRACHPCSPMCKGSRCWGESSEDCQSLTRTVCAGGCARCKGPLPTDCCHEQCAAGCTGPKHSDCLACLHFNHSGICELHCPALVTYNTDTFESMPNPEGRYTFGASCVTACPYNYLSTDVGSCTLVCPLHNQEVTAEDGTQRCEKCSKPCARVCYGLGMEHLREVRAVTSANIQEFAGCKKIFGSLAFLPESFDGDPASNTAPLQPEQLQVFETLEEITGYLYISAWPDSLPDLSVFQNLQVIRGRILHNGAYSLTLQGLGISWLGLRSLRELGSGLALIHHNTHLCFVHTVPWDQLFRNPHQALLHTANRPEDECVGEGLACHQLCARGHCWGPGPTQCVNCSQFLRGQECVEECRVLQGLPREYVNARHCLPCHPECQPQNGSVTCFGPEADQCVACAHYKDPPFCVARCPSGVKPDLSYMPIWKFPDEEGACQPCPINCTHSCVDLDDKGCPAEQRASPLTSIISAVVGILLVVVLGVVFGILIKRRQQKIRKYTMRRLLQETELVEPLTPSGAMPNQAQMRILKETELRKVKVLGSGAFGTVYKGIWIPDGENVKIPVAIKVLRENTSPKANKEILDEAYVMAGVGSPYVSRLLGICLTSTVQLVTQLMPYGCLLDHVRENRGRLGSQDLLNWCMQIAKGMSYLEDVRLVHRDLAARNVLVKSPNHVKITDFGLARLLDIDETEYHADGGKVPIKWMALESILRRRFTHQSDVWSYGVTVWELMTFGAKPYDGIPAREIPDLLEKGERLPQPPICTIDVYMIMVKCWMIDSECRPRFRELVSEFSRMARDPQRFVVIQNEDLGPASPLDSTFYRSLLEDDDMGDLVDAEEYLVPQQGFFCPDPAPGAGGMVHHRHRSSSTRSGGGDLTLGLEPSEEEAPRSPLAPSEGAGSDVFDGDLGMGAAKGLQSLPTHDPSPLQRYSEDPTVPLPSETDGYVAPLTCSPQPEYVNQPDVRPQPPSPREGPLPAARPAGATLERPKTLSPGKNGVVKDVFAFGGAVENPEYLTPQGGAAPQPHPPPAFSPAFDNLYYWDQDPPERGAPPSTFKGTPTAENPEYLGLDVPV
- procedureDetails: reducers of endogenous Her2 protein level, primary screen, SKBR3 breast tumor cells, AlphaScreen, ATP viability (AID 461);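 note: lower value means less Her2 protein in the cells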
- experimentalConditions: 18-24 h, at 10 µM, active compounds read low
Active and inactive are the calls of the source.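 The calls were made as follows: active = Her2 level under about 52% in both replicate screens, with viability over 70% of control (limit read from the data); inconclusive = Her2 under the limit in one screen only, or viability under 70%; inactive = Her2 level above the set limit.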
assayEndpoint: Her2 level

compound=Cc1cc(C)n2cc(CSCc3ccco3)nc2n1 assayendpoint="Her2 level" result="83% (inactive)"
compound="CCOc1cccc(C(=O)N(Cc2ccc(F)cc2)C2CCS(=O)(=O)C2)c1 (stereo unspecified)" assayendpoint="Her2 level" result="98% (inactive)"
compound=CS(=O)(=O)N1CCN(c2ccccc2NC(=O)c2ccc(-c3ccc(Cl)cc3Cl)o2)CC1 assayendpoint="Her2 level" result="96.5% (inactive)"
compound=Cc1cccc(OCCCC(=O)O)c1 assayendpoint="Her2 level" result="102% (inactive)"

Respectfully, I request Her2 level for each entry included below.
1. O=C(CCCCC(=O)NCc1cccs1)NCc1cccs1
2. CCCc1ccc(S(=O)(=O)NCCc2ccncc2)cc1

OUT:
1: 106% (inactive); 2: 91.5% (inactive)

Provide the reported Her2 level of each entry below, same order.
1. Cc1ccc2nc(NC(=O)C3CCCN(S(=O)(=O)c4cnc[nH]4)C3)sc2c1 (stereo unspecified)
2. c1ccc(SCc2nc3ccccc3[nH]2)nc1
3. COc1ccccc1-c1nc(C#N)c(N2CCN(c3ccccc3)CC2)o1
4. C[C@]12CC[C@H]3[C@@H](CCC4=CC(=O)CC[C@@]43C)[C@@H]1CC[C@@H]2C(=O)CO
5. O=c1c2c3c(sc2n2cnnc2n1CCc1ccccc1)CCCC3

OUT:
["92% (inactive)", "107% (inactive)", "79.5% (inactive)", "90.5% (inactive)", "78.5% (inactive)"]

Origin of values: PubChem BioAssay
